Ref: PubChem BioAssay AID623985

target: PvdQ acylase (Pseudomonas aeruginosa); assay: P. aeruginosa PvdQ acylase inhibitors, dose response, biochemical, fluorescence, plate reader, dry powder, set 2 (AID 623985); details: purified PvdQ, 4-MU laurate fluorescence, 60 min
// reported AC50 per item

Examples from the recorded data:
compound: N#CC(c1ccc(Cl)cc1)c1cccc(Cl)n1 (stereo not drawn)
AC50: 0.0179 µM

compound: N#Cc1cccc(C(C#N)c2ccc(Cl)cc2F)n1 (stereo not drawn)
AC50: 0.0467 µM

Report measured AC50; entry is CCCCC(C#N)c1ccc(Cl)cc1Cl (stereo not drawn) 0.281 µM

Tell me its AC50 given Cc1cccc(C(C#N)c2ccc(Cl)cc2)n1 (stereo not drawn) as the entry. 0.162 µM

Please give measured AC50 of the following entry: Cc1ccc(C(C#N)c2ccccc2OC(F)(F)F)nc1C#N (stereo not drawn) 0.328 µM

Tell us which AC50 value is on record for N#Cc1ccc(C(C#N)c2ccc(Cl)cc2)nc1 (stereo not drawn) 1.31 µM

Supply AC50 value. Item: CCCC(C#N)c1ccc(Cl)cc1 (stereo not drawn) 0.293 µM

Supply measured AC50 of N#CC(c1ccc(Cl)cc1)c1ccc(C(F)(F)F)c(Cl)n1 (stereo not drawn) in your reply. 0.609 µM

Note down AC50 recorded for N#CC(c1ccc(Cl)cc1)c1cccc(C(F)(F)F)n1 (stereo not drawn) 0.00416 µM

Please list AC50 recorded for the compound CCCCC(C#N)c1ccc(Cl)cc1 (stereo not drawn) 0.0569 µM

Tell me AC50 reported for N#CC(c1cccc(C(F)(F)F)n1)c1ccccc1OC(F)(F)F (stereo not drawn) 0.376 µM

Determine its reported AC50: N#CC(c1ccc(C(F)(F)F)c(Cl)n1)c1ccc(Cl)cc1F (stereo not drawn) 0.484 µM

Could you please provide reported AC50 for N#CC(c1ccc(Cl)cc1)c1ccc(C(F)(F)F)cn1 (stereo not drawn) ? Thanks! 0.171 µM

---

Catalogue of AC50 readings, one per entry.
biological target: PvdQ acylase (Pseudomonas aeruginosa); experiment: P. aeruginosa PvdQ acylase inhibitors, dose response, biochemical, fluorescence, plate reader, dry powder, set 2 (AID 623985); conditions: purified PvdQ, 4-MU laurate fluorescence, 60 min

Consider the worked cases shown below.
compound: N#CC(c1ccc(C(F)(F)F)cc1)c1cccc(Cl)n1 (centres undefined)
experimental system: PvdQ acylase (Pseudomonas aeruginosa)
result: 357 nM

compound: N#CC(c1ccc(Cl)cc1)c1ccc(Cl)cn1 (centres undefined)
experimental system: PvdQ acylase (Pseudomonas aeruginosa)
result: 73.3 nM

compound: N#CC(CC1CC1)c1ccc(Cl)cc1 (centres undefined)
experimental system: PvdQ acylase (Pseudomonas aeruginosa)
result: 133 nM

compound: N#CC(c1ccc(C(F)(F)F)cc1)c1cccc(C(F)(F)F)n1 (centres undefined)
experimental system: PvdQ acylase (Pseudomonas aeruginosa)
result: 27 nM

compound: N#Cc1cccc(C(C#N)c2ccc(Cl)cc2)n1 (centres undefined)
experimental system: PvdQ acylase (Pseudomonas aeruginosa)
result: 60.6 nM

compound: N#CC(c1ccc(C(F)(F)F)c(Cl)n1)c1ccc(Cl)cc1Cl (centres undefined)
experimental system: PvdQ acylase (Pseudomonas aeruginosa)
result: 2440 nM

compound: Cc1ccc(C(C#N)c2ccc(Cl)cc2)nc1 (centres undefined)
experimental system: PvdQ acylase (Pseudomonas aeruginosa)
result: 150 nM

compound: CCCCC(C#N)c1ccc(Cl)cc1F (centres undefined)
experimental system: PvdQ acylase (Pseudomonas aeruginosa)
result: 315 nM

Read the entry N#CC(c1ccc(C(F)(F)F)cc1)c1ccc(C(F)(F)F)c(Cl)n1 (centres undefined) and write its reported AC50. 2950 nM
